- System: Amaranthus retroflexus
- PROTOCOL NOTES: Pre-emergence herbicidal activity against Amaranthus retroflexus assessed as growth inhibition at 25 g a.i/10 a
- Assay type: functional, organism-based
Activity calls are given as the source filed them. The calls are words filed in the database; no cut-off is given here.
Thanks in advance; please answer with one of these: 1 (active), 0 (inactive)

Some solved entries appear below for comparison.
                       structure_string           tested_system  assigned_class
0   COc1cc(OC)nc(Sc2cccc(Cl)c2C(=O)O)n1  Amaranthus retroflexus               1
1    COc1cc(OC)nc(Oc2ccc(I)cc2C(=O)O)n1  Amaranthus retroflexus               0
2  CCSc1cccc(Oc2nc(OC)cc(OC)n2)c1C(=O)O  Amaranthus retroflexus               1

Call for entry COc1cc(OC)nc(Oc2cccc(C(=O)c3ccccc3)c2C(=O)O)n1 :
1

Test call, this compound: COC(=O)c1cccc(Oc2nc(OC)cc(OC)n2)c1C(=O)O
1

So what was the verdict on COc1cc(OC)nc(Oc2ccc(-n3cccc3)cc2C(=O)O)n1 in this test?
0

====

- Test system: Amaranthus retroflexus
- PROTOCOL NOTES: Pre-emergence herbicidal activity against Amaranthus retroflexus assessed as growth inhibition at 25 g a.i/10 a
- Format: functional, organism-based
Activity calls are given as the source filed them. The calls are words filed in the database; no cut-off is given here.
ASSAY METRIC: growth inhibition (GI)

# count of solved cases: 5
>>> df
                                   compound  result
0        COc1cc(OC)nc(Oc2c(F)cccc2C(=O)O)n1  Active
1       COc1cc(OC)nc(Oc2cccc(Br)c2C(=O)O)n1  Active
2        COc1cc(OC)nc(Oc2ccc(C)cc2C(=O)O)n1  Active
3  COc1cc(OC)nc([S+]([O-])c2cccc(Cl)c2C(=O)O)n1 (stereo unspecified)  Active
4   COc1cc(OC)nc(Oc2cccc(OC(C)C)c2C(=O)O)n1  Active

In the following, a different compound is considered.
Please indicate growth inhibition (GI) recorded for COc1cc(OC)nc(Oc2cccc([N+](=O)[O-])c2C(=O)O)n1
Active

====

- Tested on: Gossypium hirsutum
- PROTOCOL NOTES: Post-emergence phytotoxicity against Gossypium hirsutum (cotton) assessed as mortality at 1.6 g a.i/10 a applied 11 days after germination as foliar spray
- Assay type: organism-based
- RUN CONDITIONS: in vivo, other, 264 h
ASSAY METRIC: Activity

Example entries begin here.
                           structure_string       tested_system     result
0        COc1cc(OC)nc(Sc2cccc(F)c2C(=O)O)n1  Gossypium hirsutum  Non-toxic
1   COc1cc(OC)nc(Sc2cccc(OC(C)C)c2C(=O)O)n1  Gossypium hirsutum  Non-toxic
2        COc1cc(OC)nc(Oc2cccc(F)c2C(=O)O)n1  Gossypium hirsutum      Toxic
3       COc1cc(OC)nc(Oc2cccc(SC)c2C(=O)O)n1  Gossypium hirsutum      Toxic
4  COc1cc(OC)nc(Oc2cccc(C(F)(F)F)c2C(=O)O)n1  Gossypium hirsutum      Toxic

Below: the item to evaluate.
Determine from records and report Activity for COc1cc(OC)nc(Oc2cccc([N+](=O)[O-])c2C(=O)O)n1
Non-toxic

====

- Test system: Abutilon theophrasti
- PROTOCOL NOTES: Pre-emergence herbicidal activity against Abutilon theophrasti (velvetleaf) assessed as mortality at 1.6 g a.i/10 a
- Format: functional
- RUN CONDITIONS: Abutilon theophrasti, pre-emergence
ASSAY METRIC: mortality at 16 g/ha

Consider the following illustrative entries.
In [3]: df
Out[3]:
                           structure_string          assay_metric  result
0  COC(=O)c1cccc(Oc2nc(OC)cc(OC)n2)c1C(=O)O  mortality at 16 g/ha    < 5%
1  COc1cc(OC)nc(Oc2cccc([N+](=O)[O-])c2C(=O)O)n1  mortality at 16 g/ha    < 5%

Query mortality at 16 g/ha for COc1cc(OC)nc(Oc2cccc(I)c2C(=O)O)n1
> 90%

Write down mortality at 16 g/ha measured for item COc1cc(OC)nc(Oc2ccccc2C(=O)O)n1
< 5%

====

- Tested on: Gossypium hirsutum
- PROTOCOL NOTES: Post-emergence phytotoxicity against Gossypium hirsutum (cotton) assessed as mortality at 6.3 g a.i/10 a applied 11 days after germination as foliar spray
- Assay type: organism-based
- RUN CONDITIONS: in vivo, other, 264 h
ASSAY METRIC: Activity

Please review the following examples before continuing.
>>> print(df.to_string())
                           structure_string  assay_metric     result
0  COC(=O)c1cccc(Oc2nc(OC)cc(OC)n2)c1C(=O)O      Activity      Toxic
1      CCOc1cccc(Oc2nc(OC)cc(OC)n2)c1C(=O)O      Activity      Toxic
2        COc1cc(OC)nc(Oc2cccc(C)c2C(=O)O)n1      Activity  Non-toxic
3        COc1cc(OC)nc(Oc2cccc(F)c2C(=O)O)n1      Activity      Toxic
4        COc1cc(OC)nc(Sc2cccc(C)c2C(=O)O)n1      Activity  Non-toxic
5       CCc1cccc(Oc2nc(OC)cc(OC)n2)c1C(=O)O      Activity      Toxic

Let us examine a further case.
Quickly give me recorded Activity for COc1cc(OC)nc(Oc2cccc([N+](=O)[O-])c2C(=O)O)n1
Non-toxic

====

- Test system: Digitaria sanguinalis
- PROTOCOL NOTES: Post-emergence herbicidal activity against Digitaria sanguinalis (hairy crabgrass) assessed as growth inhibition at 25 g a.i/10 a applied 11 days after germination as foliar spray
- Format: functional, organism-based
Active and inactive are the calls of the source. No cut-off for these calls is given here.
ASSAY METRIC: growth inhibition (GI)

Example entries and their recorded answers appear below.
                        structure_string          tested_system            assay_metric    result
0    COc1cc(OC)nc(Sc2cccc(Cl)c2C(=O)O)n1  Digitaria sanguinalis  growth inhibition (GI)    Active
1    COc1cc(OC)nc(Oc2ccc(Cl)cc2C(=O)O)n1  Digitaria sanguinalis  growth inhibition (GI)  inactive
2    COc1cc(OC)nc(Oc2cccc(Br)c2C(=O)O)n1  Digitaria sanguinalis  growth inhibition (GI)    Active
3    COc1cc(OC)nc(Oc2cccc(Cl)c2C(=O)O)n1  Digitaria sanguinalis  growth inhibition (GI)    Active
4  CCCSc1cccc(Oc2nc(OC)cc(OC)n2)c1C(=O)O  Digitaria sanguinalis  growth inhibition (GI)  inactive
5     COc1cc(OC)nc(Oc2ccc(I)cc2C(=O)O)n1  Digitaria sanguinalis  growth inhibition (GI)  inactive

Report measured growth inhibition (GI); entry is COc1cc(OC)nc(Oc2cccc(C(F)(F)F)c2C(=O)O)n1
Active

State its growth inhibition (GI): COc1cc(OC)nc(Oc2cccc(OC(C)C)c2C(=O)O)n1
Active

Retrieve growth inhibition (GI) measured for COc1cc(OC)nc(Oc2ccc(-n3cccc3)cc2C(=O)O)n1 and print it.
Active

====

- Test system: Gossypium hirsutum
- PROTOCOL NOTES: Pre-emergence phytotoxicity against Gossypium hirsutum (cotton) assessed as mortality per 10 acre
- Format: organism-based
- RUN CONDITIONS: in vivo
ASSAY METRIC: ED20 (gAi)
Kindly provide the numeric value in gAi only, without the unit symbol.

Specify reported ED20 for the compound shown: COc1cc(OC)nc(Sc2cccc(C)c2C(=O)O)n1
100

Return value of ED20 for input COc1cc(OC)nc(Sc2cccc(Cl)c2C(=O)O)n1 , no commentary.
50

Give the measured ED20 for COc1cc(OC)nc(Sc2cccc(Br)c2C(=O)O)n1
50

Specify measured ED20 for COc1cc(OC)nc(Oc2ccccc2C(=O)O)n1 .
12

====

Some molecules, each annotated with its measured mortality.
- PROTOCOL NOTES: Pre-emergence phytotoxicity against Glycine max (soybean) assessed as mortality at 6.3 g a.i/10 a
- Format: organism-based
- RUN CONDITIONS: in vivo, 6.3 g a.i/10 a, read-out: mortality

Study these solved cases before continuing.
                      structure_string  assay_metric  result
0  COc1cc(OC)nc(Oc2cccc(Br)c2C(=O)O)n1     mortality   > 90%
1   COc1cc(OC)nc(Oc2cccc(F)c2C(=O)O)n1     mortality   > 90%
2  COc1cc(OC)nc(Oc2cccc(Cl)c2C(=O)O)n1     mortality   > 90%
3   COc1cc(OC)nc(Oc2cccc(I)c2C(=O)O)n1     mortality   > 90%

Name the recorded mortality of the item COc1cc(OC)nc(Oc2cccc(OC)c2C(=O)O)n1 in your answer.
> 90%
